What composite z-score was measured for each of the following?
# Tested on: Neuregulin-1 EGF-like domain
# experimentalProtocol: binders of neuregulin-1 EGF-like domain, primary screen, biochemical, small-molecule microarray, 635 nm fluorescence (AID 1081);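 also: binding of the protein to compounds printed on small-molecule microarray slides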
# conditionSet: small-molecule microarray binding, higher = more signal

The recorded composite z-score for entry CCOC(=O)C1=C(C(=O)OCC)N(S(=O)(=O)CC[Si](C)(C)C)[C@H](c2ccccc2)CC1 equals 0.884

The recorded composite z-score for entry CC(C)N1CC=CC23O[C@@H]4C=CCCOC(=O)C4[C@H]2C(=O)N(CCCCCO)[C@@H]3C1=O (stereo not given in full) equals 1.21

The recorded composite z-score for entry CCOC(=O)C[C@H]1[C@H](OC(=O)Cc2ccc3c(c2)OCO3)[C@@H](NC(=O)c2ccccc2)c2cc(OCCCO)ccc2N1C(=O)Cc1ccc(OC)cc1 equals 0.049

The recorded composite z-score for entry COCCOC(=O)N1C(=O)[C@@]2(c3ccccc31)[C@H](c1ccc(OCCO)cc1)N1[C@H](c3ccccc3)[C@H](c3ccccc3)OC(=O)[C@H]1[C@@H]2C(=O)N1CCN(c2ncccn2)CC1 equals 1.24

The recorded composite z-score for entry CCCC[C@H]1OB(O)C[C@H]2C1=C(C)C[C@H]1C(=O)C=CC(=O)[C@H]12 equals 0.698

The recorded composite z-score for entry CC1(C)OC[C@@]23C=C(Br)[C@@H](C[C@H]12)[C@@]1(CO1)C3=O equals 0.149

The recorded composite z-score for entry CCCCC(=C=CC[C@@H](O)c1cccc(OCCO)c1)CCO equals 0.345

The recorded composite z-score for entry COc1cccc(C[C@H]2C[C@@H](CO[Si](C(C)C)(C(C)C)C(C)C)N3C(=O)[C@@]4(C(C)=O)O[C@@]23[C@@H]2C(=O)N(C)C(=O)[C@@H]24)c1 equals 0.93

The recorded composite z-score for entry CCOC(=O)C1=CC[C@@H](c2ccccc2Cl)N(S(=O)(=O)c2ccc(C)cc2)[C@H]1c1cccc(OC)c1 equals 0.971

The recorded composite z-score for entry CCOC(=O)C[C@H]1[C@H](OC(=O)c2ccc(C(=O)c3ccccc3)cc2)[C@@H](NC(=O)c2ccc3ccccc3c2)c2cc(OCCCO)ccc2N1C(=O)c1ccc2ccccc2n1 equals 0.53

The recorded composite z-score for entry COc1ccc(NN2C(C(O)c3ccc(OC)cc3)C=CC3C(=O)N(C4CCCCC4)C(=O)C32)cc1 (stereo not given) equals 0.978

The recorded composite z-score for entry COCCOC(=O)N1C(=O)[C@@]2(c3cc(C#Cc4ccc(OC)cc4)ccc31)[C@H](c1ccc(OCCO)cc1)N1[C@H](c3ccccc3)[C@H](c3ccccc3)OC(=O)[C@H]1[C@@H]2C(=O)N1CCCCCCC1 equals 1.01

The recorded composite z-score for entry COc1ccc(CC[C@H](O)c2cccc(OCC(=O)OC(C)(C)C)c2)cc1 equals 0.977

The recorded composite z-score for entry CN1C(=O)[C@]2(CCS(=O)(=O)c3ccccc3)N=C(c3ccc(OCCCO)cc3)O[C@@H]2c2ccccc21 equals 1.41

The recorded composite z-score for entry O=C1O[C@@H](c2ccccc2)[C@@H](c2ccccc2)N2[C@@H](c3ccc(O)cc3)[C@]3(C(=O)Nc4ccc(C#CC5=CCCCC5)cc43)[C@@H](C(=O)N3CCCCCCC3)[C@H]12 equals 1.3

###

# experimentalProtocol: COS7 lysate on small-molecule microarray, probe aHis, 635 nm (AID 1123);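 also: z-score combines 667nm fluorescence intensity with signal-to-noise per printed compound spot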
# conditionSet: COS7 cell lysate, fluorescence, higher = more signal
endpointLabel: composite z-score
The reply should be a number, written without any unit.

The recorded composite z-score for entry CC#CCO[Si](C#CCCCCCC)(C(C)C)C(C)C equals -0.0607

The recorded composite z-score for entry COC(=O)[C@@]1(Cc2ccc(F)cc2)[C@H]2c3cc(C(=O)N(C)C)n(CCn4cc([N+](=O)[O-])nc4C)c3C[C@H]2CN1C(=O)c1ccccc1 equals 2.02

The recorded composite z-score for entry C=CCC(OC(C)=O)[C@@H]1[C@@H](N(Cc2cc3ccccc3o2)C(=O)c2ccc(-c3ccccc3)cc2)c2cc(OCCCO)ccc2N1C(=O)c1ccc2ccccc2n1 (some centres undefined) equals 0.23

The recorded composite z-score for entry COCCOC(=O)N1C(=O)[C@@]2(c3cc(C#CCCO)ccc31)[C@H](C(=O)N1CCc3cc(OC)c(OC)cc3C1)[C@H]1C(=O)O[C@H](c3ccccc3)[C@H](c3ccccc3)N1[C@@H]2c1ccccc1OCCO equals 1.2

The recorded composite z-score for entry [N-]=[N+]=NCc1ccccc1C[C@]1(C(=O)N2CCOCC2)N=C(c2ccc(OCCCO)cc2)O[C@H]1c1ccccc1CN=[N+]=[N-] equals 3.34

The recorded composite z-score for entry CC(C)(C)OC(=O)CC[C@]1(C(N)=O)N=C(c2ccc(OCCCO)cc2)O[C@H]1c1ccccc1CN=[N+]=[N-] equals 3.63

The recorded composite z-score for entry CC(C)[Si](C#CCCCC#N)(O[C@H](c1ccccc1)c1cn([C@H](C)c2ccccc2)nn1)C(C)C equals 0.879

The recorded composite z-score for entry COCCOC(=O)N1C(=O)[C@@]2(c3cc(C#Cc4ccc(OC)cc4)ccc31)[C@H](C(=O)Nc1nc3ccccc3s1)[C@H]1C(=O)O[C@H](c3ccccc3)[C@H](c3ccccc3)N1[C@@H]2c1ccccc1OCCO equals 0.874

The recorded composite z-score for entry CCN(CC)c1ccc(N2CC=CC34O[C@@H]5C=CCOC(=O)[C@@H]5[C@H]3C(=O)N(CCO)[C@@H]4C2=O)cc1 (some centres undefined) equals -0.368

The recorded composite z-score for entry COC(=O)[C@@]1(Cc2ccccc2CN=[N+]=[N-])COC(c2ccc(OCCCO)cc2)=N1 equals 2.27

The recorded composite z-score for entry [N-]=[N+]=NCc1ccccc1C[C@]1(C(=O)NCc2ccccc2)N=C(c2ccc(OCCCO)cc2)O[C@H]1c1ccccc1CN=[N+]=[N-] equals 2.67

The recorded composite z-score for entry COC(=O)[C@@]1(Cc2ccc(F)cc2)[C@H]2c3cc(C(=O)N(C)C)n(CCO)c3C[C@H]2CN1C(=O)c1ccccc1 equals 1.97

The recorded composite z-score for entry C=CCNC(=O)[C@@H]1[C@H]2C(=O)O[C@H](c3ccccc3)[C@H](c3ccccc3)N2[C@H](c2ccccc2OCCO)[C@@]12C(=O)N(C(=O)OCCOC)c1ccc(C#CCCO)cc12 equals 0.797

The recorded composite z-score for entry COCCCNC(=O)[C@@]1(Sc2ccc(C)cc2)CC(=O)N(C2CCCCC2)[C@@H]1c1ccc(CO)cc1I equals 1.8

###

# experimentalProtocol: FRG1 promoter luciferase signal modulators, primary screen, FRG1 inhibition for FSHD, cell-based, C2C12 myotubes, firefly/Renilla luciferase, luminescence (AID 1084)
# conditionSet: higher = more signal, called active from +8 up or from −8 down
Outcome: TRUE for z-score of at least -0.3; FALSE for anything lower.

Problem: Hi, just wondering whether COc1ccccc1CN1C(=O)c2ccccc2[C@@H](C(=O)NCCCN(C)C)[C@@H]1c1ccc(CO)cc1 shows z-score of -0.3 or higher.
Result: FALSE

Problem: Hi, just wondering whether N[C@@H](Cc1ccccc1)Cn1cc(C2(O)CCCCC2)nn1 shows z-score of -0.3 or higher.
Result: TRUE

Problem: Hi, just wondering whether C=CCOC(=O)[C@H]1[C@@H]2C(=O)O[C@@H](c3ccccc3)[C@@H](c3ccccc3)N2[C@@H](c2ccc(OCCOC(=O)[C@@H]3C[C@@H]4C(=O)N[C@@H](CC(C)C)C(=O)N4[C@@H]3c3ccc(O)cc3)cc2)[C@]12C(=O)Nc1ccc(I)cc12 shows z-score of -0.3 or higher.
Result: FALSE

Problem: Hi, just wondering whether CCOC(=O)C1=CCC(c2cc3ccccc3[nH]2)N(S(=O)(=O)c2ccccc2[N+](=O)[O-])C1 (stereo unspecified) shows z-score of -0.3 or higher.
Result: FALSE

Problem: Hi, just wondering whether C=C(COC)/C(=C/C[C@H](OC(=O)c1ccncc1)c1ccc(OCCO)cc1)c1cc(C(=O)OC)ccc1OC shows z-score of -0.3 or higher.
Result: FALSE

Problem: Hi, just wondering whether COCCCNC(=O)[C@@]1(Sc2ccc(C)cc2)CC(=O)N(C2CCCCC2)[C@@H]1c1ccc(CO)cc1I shows z-score of -0.3 or higher.
Result: FALSE

Problem: Hi, just wondering whether C/C=C/CN(C(=O)C#Cc1ccccc1)[C@H](CO[Si](C)(C)C(C)(C)C)c1ccccc1 shows z-score of -0.3 or higher.
Result: FALSE

Problem: Hi, just wondering whether [N-]=[N+]=NCc1ccccc1C[C@]1(C(=O)N2CCOCC2)N=C(c2ccc(OCCCO)cc2)O[C@H]1c1ccccc1CN=[N+]=[N-] shows z-score of -0.3 or higher.
Result: FALSE

Problem: Hi, just wondering whether C=CCC(OC(C)=O)[C@@H]1[C@@H](N(Cc2cccc3ccccc23)C(=O)c2ccc(-c3ccccc3)cc2)c2cc(OCCCO)ccc2N1C(=O)c1ccc2ccccc2n1 (stereo partly specified) shows z-score of -0.3 or higher.
Result: FALSE

Problem: Hi, just wondering whether CC(C)C[C@H]1NC(=O)[C@@H](C)NC(=O)[C@@]23C(=O)N[C@@H](Cc4ccccc4)C2[C@H](C)[C@@]2(C)O[C@H]2C3/C=C/C/C=C\CNC1=O (stereo partly specified) shows z-score of -0.3 or higher.
Result: TRUE

Problem: Hi, just wondering whether COCCOC(=O)N1C(=O)[C@@]2(c3cc(C#Cc4ccc(OC)cc4)ccc31)[C@H](C(=O)Nc1nc3ccccc3s1)[C@H]1C(=O)O[C@H](c3ccccc3)[C@H](c3ccccc3)N1[C@@H]2c1ccccc1OCCO shows z-score of -0.3 or higher.
Result: TRUE

Problem: Hi, just wondering whether [N-]=[N+]=Nc1ccccc1[C@@H]1OC(c2ccc(OCCCO)cc2)=N[C@]1(Cc1ccccc1)C(N)=O shows z-score of -0.3 or higher.
Result: TRUE

Problem: Hi, just wondering whether O=C1c2ccccc2[C@@]2(Cc3ccccc3N(Cc3ccccc3)C2=O)[C@H](c2ccc(CO)cc2)N1Cc1ccccc1 shows z-score of -0.3 or higher.
Result: TRUE

Problem: Hi, just wondering whether C#CCN=C(N)N shows z-score of -0.3 or higher.
Result: TRUE

Problem: Hi, just wondering whether COCC(=C=CC[C@@H](O)c1ccc(OCCO)cc1)C[C@@H](O)COCc1ccccc1 shows z-score of -0.3 or higher.
Result: FALSE
